// provenance: patent US20250248393A1

- Procedure summary: Ratios of molecules diffused through the sticks over time
- Type: physicochemical
- Condition label: F3, 21 days after immersion of sticks (empty tank)
Below: a set of entries, each annotated with reported ratio of molecules diffused through the sticks.

Molecule	Endpoint result
COC(=O)CCCCCC(=O)OC [dimethyl pimelate, dimethyl heptanedioate]	48 % (w/w)
CCCCCCCCCCCCCCCC(=O)OC [methyl palmitate, methyl hexadecanoate]	5 % (w/w)
COC(=O)CCCCCCCC(=O)OC [dimethyl azelate, dimethyl nonanedioate]	43 % (w/w)

Kindly consider the entry below.
Request the reported ratio of molecules diffused through the sticks associated with CCCCCCCC/C=C\CCCCCCCC(=O)OC [methyl oleate, methyl (Z)-octadec-9-enoate] 4 % (w/w)

====

- Procedure summary: F3 block stability study in sodium stearate aqueous gel (GC-MS)
- Type: physicochemical
- Condition label: after 3 months
Measurement label: stability in the block

Molecule	Endpoint result
COC(=O)CCCCCC(=O)OC [dimethyl pimelate, dimethyl heptanedioate]	disappeared completely
CCCCCCCC/C=C\CCCCCCCC(=O)OC [methyl oleate, methyl (Z)-octadec-9-enoate]	remained stable
CCCCCCCCCCCCCCCC(=O)OC [methyl palmitate, methyl hexadecanoate]	remained stable
COC(=O)CCCCCCCC(=O)OC [dimethyl azelate, dimethyl nonanedioate]	disappeared completely

====

- Procedure summary: Indirect assay of diffuser blocks (GC/FID, pheromone remaining in the block)
- Assay type: physicochemical
- Condition label: despecified pheromone, day 7
- Procedure: Analyses were carried out using the gas chromatography (GC) technique with a flame ionization detector (FID), commonly known as GC/FID. […]
Below: a set of entries, each annotated with reported % of the active ingredient in the pheromone.
Give the value in % but do not write % after it.

Compound	Unit abbreviation	Endpoint result
CCCCCCCCCCCCCCCC(=O)OC [methyl palmitate, methyl hexadecanoate]	%	27.2
CCCCCCCCCCCCCC(=O)OC [methyl myristate, methyl tetradecanoate]	%	11.9
CCCCCCCC/C=C\CCCCCCCC(=O)OC [methyl oleate, methyl (Z)-octadec-9-enoate]	%	30.6

Kindly consider the entry below.
Request the reported % of the active ingredient in the pheromone associated with CCCCC/C=C\C/C=C\CCCCCCCC(=O)OC [methyl linoleate, methyl (9Z,12Z)-octadeca-9,12-dienoate] 30.2

====

Below: a set of entries, each annotated with reported ratio of molecules diffused through the sticks.
- Procedure summary: Ratios of molecules diffused through the sticks over time
- Format: physicochemical
- Condition label: F3, 24 h after immersion of sticks

Recorded ratio of molecules diffused through the sticks, per entry:
Compound	Endpoint result
COC(=O)CCCCCC(=O)OC [dimethyl pimelate, dimethyl heptanedioate]	70 % (w/w)
CCCCCCCC/C=C\CCCCCCCC(=O)OC [methyl oleate, methyl (Z)-octadec-9-enoate]	2 % (w/w)

Request the reported ratio of molecules diffused through the sticks associated with CCCCCCCCCCCCCCCC(=O)OC [methyl palmitate, methyl hexadecanoate] 3 % (w/w)

Now this one: COC(=O)CCCCCCCC(=O)OC [dimethyl azelate, dimethyl nonanedioate] 25 % (w/w)

====

Below: a set of entries, each annotated with reported % of the active ingredient in the pheromone.
- Procedure summary: Indirect assay of rod diffuser solution (GC/FID)
- Type: physicochemical
- Condition label: stick diffuser solution, despecified pheromone, day 21
Give the value in % but do not write % after it.

Molecule	Unit abbreviation	Endpoint result
CCCCCCCCCCCCCC(=O)OC [methyl myristate, methyl tetradecanoate]	%	11.4
CCCCCCCCCCCCCCCC(=O)OC [methyl palmitate, methyl hexadecanoate]	%	26.2
CCCCC/C=C\C/C=C\CCCCCCCC(=O)OC [methyl linoleate, methyl (9Z,12Z)-octadeca-9,12-dienoate]	%	31.5

Kindly consider the entry below.
Request the reported % of the active ingredient in the pheromone associated with CCCCCCCC/C=C\CCCCCCCC(=O)OC [methyl oleate, methyl (Z)-octadec-9-enoate] 30.8
